Recorded CC50 by entry
system: LOX IMVI; experiment: NCI 60 cell line five dose, Melanoma; conditions: read-out: LC50
Report the figure in µM without appending any unit label.

>  <compound>
C=C1C(=O)O[C@H]2[C@H]1CC/C(COC(=O)NCCCCNC(=O)OC/C1=C/CC[C@@]3(C)O[C@H]3[C@H]3OC(=O)C(=C)[C@@H]3CC1)=C\CC[C@@]1(C)O[C@@H]21 [JVM 3-54]

>  <measured_target>
LOX IMVI

>  <quantity_measured>
CC50

>  <uom>
µM

>  <observed>
5.15

$$$$

Shift focus to the following entry.
// query Name the recorded CC50 for C=C1C(=O)O[C@H]2[C@H]1CC/C(COC(=O)NCCCCCNC(=O)OC/C1=C/CC[C@@]3(C)O[C@H]3[C@H]3OC(=O)C(=C)[C@@H]3CC1)=C\CC[C@@]1(C)O[C@@H]21 [JVM 2-76] .
// result 5.82

* * *

test system: A549/ATCC; assay: NCI 60 cell line five dose, Non-Small Cell Lung Cancer; settings: read-out: LC50
Recorded CC50 by entry
Report the figure in µM without appending any unit label.

>  <compound>
C=C1C(=O)O[C@H]2[C@H]1CC/C(COC(=O)NCCCCCNC(=O)OC/C1=C/CC[C@@]3(C)O[C@H]3[C@H]3OC(=O)C(=C)[C@@H]3CC1)=C\CC[C@@]1(C)O[C@@H]21 [JVM 2-76]

>  <measured_target>
A549/ATCC

>  <CC50 (µM)>
71.7

$$$$

Shift focus to the following entry.
// query Tell me reported CC50 for C=C1C(=O)O[C@H]2[C@H]1CC/C(COC(=O)NCCCCNC(=O)OC/C1=C/CC[C@@]3(C)O[C@H]3[C@H]3OC(=O)C(=C)[C@@H]3CC1)=C\CC[C@@]1(C)O[C@@H]21 [JVM 3-54] , tested with A549/ATCC.
// result 58.7

* * *

system: OVCAR-4; test: NCI 60 cell line five dose, Ovarian Cancer; details: read-out: LC50
Recorded CC50 by entry
Report the figure in µM without appending any unit label.

>  <mol_smiles>
C=C1C(=O)O[C@H]2[C@H]1CC/C(COC(=O)NCCCCCNC(=O)OC/C1=C/CC[C@@]3(C)O[C@H]3[C@H]3OC(=O)C(=C)[C@@H]3CC1)=C\CC[C@@]1(C)O[C@@H]21

>  <observed>
41.9

$$$$

Shift focus to the following entry.
// query Name the recorded CC50 for C=C1C(=O)O[C@H]2[C@H]1CC/C(COC(=O)NCCCCNC(=O)OC/C1=C/CC[C@@]3(C)O[C@H]3[C@H]3OC(=O)C(=C)[C@@H]3CC1)=C\CC[C@@]1(C)O[C@@H]21 .
// result 30.5

* * *

test system: T-47D; experiment: NCI 60 cell line five dose, Breast Cancer; conditions: read-out: LC50, molar
quantity_measured: CC50

// query Name the recorded CC50 for C=C1C(=O)O[C@H]2[C@H]1CC/C(COC(=O)NCCCCCCCCNC(=O)OC/C1=C/CC[C@@]3(C)O[C@H]3[C@H]3OC(=O)C(=C)[C@@H]3CC1)=C\CC[C@@]1(C)O[C@@H]21 .
// result > 100 µM

* * *

Data export: CC50 values recorded with UACC-62.
Report the figure in µM without appending any unit label.

>  <mol_smiles>
C=C1C(=O)O[C@H]2[C@H]1CC/C(COC(=O)CCC(=O)NCCCCCCCCNC(=O)CCC(=O)OC/C1=C/CC[C@@]3(C)O[C@H]3[C@H]3OC(=O)C(=C)[C@@H]3CC1)=C\CC[C@@]1(C)O[C@@H]21

>  <measured_target>
UACC-62

>  <CC50 / µM>
8.94

$$$$

Shift focus to the following entry.
// query Tell me reported CC50 for C=C1C(=O)O[C@H]2[C@H]1CC/C(COC(=O)CCC(=O)NCCCCCCCCCNC(=O)CCC(=O)OC/C1=C/CC[C@@]3(C)O[C@H]3[C@H]3OC(=O)C(=C)[C@@H]3CC1)=C\CC[C@@]1(C)O[C@@H]21 , tested with UACC-62.
// result 8.44
